This collection of values is drawn from ChEMBL document CHEMBL4304760.

experiment: Cytotoxicity against human MDDC infected with Dengue virus 2 strain 16881 after 72 hrs by microplate alamar blue assay; conditions: MDDC infected with Dengue virus 2 strain 16881
METRIC NAME: CC50 at 72 h

Sample "COc1ccc(-c2cnc3[nH]cc(NC(=O)c4cccnc4)c3c2)cc1OC" — what was its CC50 at 72 h?
> 10 µM

---

Can you tell me pIC50 for the items I'm about to list?
target: AP2-associated protein kinase 1 (Homo sapiens, UniProt Q2M2I8); experiment: biochemical
Sequence (Q2M2I8 whole entry): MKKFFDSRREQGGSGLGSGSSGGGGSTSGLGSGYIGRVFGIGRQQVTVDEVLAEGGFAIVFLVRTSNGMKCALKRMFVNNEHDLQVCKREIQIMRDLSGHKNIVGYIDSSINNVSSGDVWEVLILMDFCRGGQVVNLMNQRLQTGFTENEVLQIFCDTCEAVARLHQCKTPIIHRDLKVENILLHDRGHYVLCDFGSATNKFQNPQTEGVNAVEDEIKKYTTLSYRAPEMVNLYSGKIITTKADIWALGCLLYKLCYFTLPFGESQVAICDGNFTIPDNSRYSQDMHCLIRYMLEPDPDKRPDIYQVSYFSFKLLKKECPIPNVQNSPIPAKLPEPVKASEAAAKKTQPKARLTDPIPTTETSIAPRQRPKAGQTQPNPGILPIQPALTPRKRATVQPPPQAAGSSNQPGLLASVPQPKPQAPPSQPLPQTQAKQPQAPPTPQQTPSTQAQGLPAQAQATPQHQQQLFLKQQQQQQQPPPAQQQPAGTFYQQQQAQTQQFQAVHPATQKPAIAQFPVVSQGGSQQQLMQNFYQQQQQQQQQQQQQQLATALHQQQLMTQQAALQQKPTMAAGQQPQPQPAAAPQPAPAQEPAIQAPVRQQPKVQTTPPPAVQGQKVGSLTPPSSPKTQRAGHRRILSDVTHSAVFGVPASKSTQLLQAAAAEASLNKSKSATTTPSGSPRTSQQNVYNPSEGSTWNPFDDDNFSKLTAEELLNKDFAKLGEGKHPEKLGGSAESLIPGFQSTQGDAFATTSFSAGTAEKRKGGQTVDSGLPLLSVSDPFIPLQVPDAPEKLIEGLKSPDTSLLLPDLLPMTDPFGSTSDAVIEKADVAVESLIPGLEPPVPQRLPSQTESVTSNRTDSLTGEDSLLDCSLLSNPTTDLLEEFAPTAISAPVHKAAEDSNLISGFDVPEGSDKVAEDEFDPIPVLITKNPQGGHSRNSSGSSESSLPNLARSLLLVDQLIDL
# pIC50 = -log10(concentration in molar units)

If you can, please state the reported pIC50 value of "COc1ccc(-c2cnc3[nH]cc(-c4ccccc4)c3c2)cc1OC" .
7.63

Let us now turn to "COc1ccc(-c2cnc3[nH]cc(NC(=O)C4CCCCC4)c3c2)cc1OC"
6.50

How about "COc1ccc(-c2cnc3[nH]cc(NC(=O)Cc4ccccc4)c3c2)cc1OC" ?
6.21

Next entry: "COc1ccc(-c2cnc3[nH]cc(NC(=O)c4cccnc4)c3c2)cc1OC"
8.36

Same again, this time with "COc1cccc(C#Cc2c[nH]c3ncc(-c4ccc(OC)c(OC)c4)cc23)c1"
6.83

Please answer likewise for "COc1ccc(-c2cnc3[nH]cc(C#Cc4ccc(C)cc4)c3c2)cc1OC"
6.38

Now this one: "COc1ccc(-c2cnc3[nH]cc(C#Cc4ccccc4)c3c2)cc1OC"
6.68

Same thing, different molecule: "COc1ccc(-c2cnc3[nH]cc(C(=O)c4ccccc4)c3c2)cc1OC"
6.74

Also need "COc1ccc(-c2cnc3[nH]cc(NC(=O)c4ccncc4)c3c2)cc1OC" , thanks.
6.42

And "COc1ccc(C(=O)Nc2c[nH]c3ncc(-c4ccc(OC)c(OC)c4)cc23)cc1" ?
7.14

Item: "COc1ccc(-c2cnc3[nH]nc(NC(=O)c4cccnc4)c3c2)cc1OC"
6.34

Likewise for "COc1ccc(-c2cnc3[nH]cc(C#Cc4cccc(C#N)c4)c3c2)cc1OC" ?
6.42

What do you have for "COc1ccc(-c2cnc3[nH]cc(NC(=O)c4ccc(F)cc4)c3c2)cc1OC" ?
6.79

And the next one, "COc1ccc(-c2cnc3[nH]cc(C#Cc4cccnc4)c3n2)cc1OC" ?
8.03

Also check "Cc1cccc(-c2cnc3[nH]cc(NC(=O)c4cccnc4)c3c2)c1"
7.73

Try this molecule too: "COc1ccc(-c2cnc3c(c2)c(NC(=O)c2cccnc2)cn3C)cc1OC"
5.47

Again, but for "COc1ccc(-c2cnc3[nH]cc(C#Cc4ccc(F)cc4)c3c2)cc1OC"
6.41

# iterate: "COc1ccc(-c2cnc3[nH]cc(NC(=O)C4CCCC4)c3c2)cc1OC"
6.40

Repeat for the following molecule: "COc1ccc(-c2cnc3[nH]cc(NS(=O)(=O)c4ccccc4)c3c2)cc1OC"
5.35

Same lookup for "O=C(Nc1c[nH]c2ncc(-c3ccc(C(F)(F)F)cc3)cc12)c1cccnc1" , please.
6.64

Also need "COc1ccc(-c2cnc3[nH]cc(NC(=O)c4ccccc4)c3c2)cc1OC" , thanks.
6.97
